Biological target: S. aureus DnaE (DNA polymerase III α-subunit homolog from Staphylococcus aureus) (Staphylococcus aureus, UniProt Q5HF71)
Construct: SaDnaE (S. aureus DnaE residues 1-1065); 6xHis (N); made in house; host or cells: E. coli BL21-AI
Sequence (Q5HF71 whole entry, the tested form may be a part): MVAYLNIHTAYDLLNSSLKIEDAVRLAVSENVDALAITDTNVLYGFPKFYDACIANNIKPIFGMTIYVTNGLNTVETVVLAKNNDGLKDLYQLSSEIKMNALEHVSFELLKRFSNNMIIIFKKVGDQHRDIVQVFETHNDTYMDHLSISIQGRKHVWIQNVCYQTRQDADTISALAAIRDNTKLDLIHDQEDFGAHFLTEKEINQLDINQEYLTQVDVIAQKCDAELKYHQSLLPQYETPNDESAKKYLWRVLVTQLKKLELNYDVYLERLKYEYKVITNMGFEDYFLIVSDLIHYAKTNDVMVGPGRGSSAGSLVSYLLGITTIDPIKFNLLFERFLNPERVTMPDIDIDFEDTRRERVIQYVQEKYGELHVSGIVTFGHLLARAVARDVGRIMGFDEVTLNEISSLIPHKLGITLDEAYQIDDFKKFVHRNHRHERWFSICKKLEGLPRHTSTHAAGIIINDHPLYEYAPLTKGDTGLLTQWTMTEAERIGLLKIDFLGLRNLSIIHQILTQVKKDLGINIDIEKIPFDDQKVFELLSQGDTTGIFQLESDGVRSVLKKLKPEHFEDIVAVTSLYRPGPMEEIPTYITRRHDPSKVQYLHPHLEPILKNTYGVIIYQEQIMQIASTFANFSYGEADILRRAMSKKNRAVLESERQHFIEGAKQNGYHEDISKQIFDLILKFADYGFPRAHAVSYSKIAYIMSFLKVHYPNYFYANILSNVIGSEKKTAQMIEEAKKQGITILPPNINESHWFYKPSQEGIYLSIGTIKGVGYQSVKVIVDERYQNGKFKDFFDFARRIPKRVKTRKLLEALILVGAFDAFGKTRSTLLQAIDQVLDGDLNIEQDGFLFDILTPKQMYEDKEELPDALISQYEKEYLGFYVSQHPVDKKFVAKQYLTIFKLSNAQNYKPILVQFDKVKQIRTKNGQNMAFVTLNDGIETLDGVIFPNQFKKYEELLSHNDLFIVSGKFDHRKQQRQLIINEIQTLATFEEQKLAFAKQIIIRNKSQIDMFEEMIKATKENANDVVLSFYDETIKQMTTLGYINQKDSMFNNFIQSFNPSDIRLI
Experiment: biochemical
Format: biochemical
Conditions: read-out: S. aureus DnaE IC50
Parameter: pIC50
One number for each entry, as −log10 of the molar value.

Tell me the measured pIC50 of CO[C@H]1CC2C=C[C@H]3[C@H]4O[C@]2(/C(C)=C/[C@@H](C)[C@@H]([C@@H](C)OC(=O)OC2CCC(O)CC2)OC1=O)[C@@H]3[C@H](O)[C@@H](C)[C@H]4OC(=O)c1ccc[nH]1 (single isomer, unassigned) , please.
7.97

###

Target: S. aureus DnaE (DNA polymerase III α-subunit homolog from Staphylococcus aureus) (Staphylococcus aureus)
Construct: SaDnaE (S. aureus DnaE residues 1-1065); 6xHis (N); made in house; host or cells: E. coli BL21-AI
Test: biochemical
Assay type: biochemical
Details: S. aureus DnaE IC50
Parameter: pIC50
One number for each entry, as −log10 of the molar value.

Some compounds with known pIC50 results, for comparison:
CO[C@H]1C[C@H]2C=C[C@H]3[C@H]4O[C@]2(/C(C)=C/[C@@H](C)[C@@H](C(C)=O)OC1=O)[C@@H]3C(=O)[C@@H](C)[C@H]4OC(=O)c1ccc[nH]1 [Example 171]: 5.16
CO[C@H]1CC2C=C[C@H]3[C@H]4O[C@]2(/C(C)=C/[C@@H](C)[C@@H]([C@@H](C)O)OC1=O)[C@@H]3[C@H](OC(N)=O)[C@@H](C)[C@H]4OC(=O)c1ccc[nH]1 (stereo partly drawn) [Example 38]: 7.40
CO[C@H]1C[C@H]2[C@@H](O)C[C@H]3[C@H]4O[C@]2(/C(C)=C/[C@@H](C)[C@@H]([C@@H](C)O)OC1=O)[C@@H]3[C@H](O)[C@@H](C)[C@H]4OC(=O)c1ccc[nH]1 [Example 193]: 5.73
CC[C@@H]1OC(=O)[C@@H](OC)C[C@H]2C=C[C@H]3[C@H]4O[C@]2(/C(C)=C/[C@H]1C)[C@@H]3[C@H](O)[C@@H](C)[C@H]4OC(=O)c1ccc[nH]1 [Example 49]: 6.25
CO[C@H]1C[C@H]2C=C[C@H]3[C@H]4O[C@]2(/C(C)=C/[C@@H](C)[C@@H]([C@@H](C)OC(N)=O)OC1=O)[C@@H]3[C@H](OC(N)=O)[C@@H](C)[C@H]4OC(=O)c1ccc[nH]1 [Example 4]: 5.93
CO[C@H]1C[C@H]2C=CC3C4[C@H](O)[C@@H](C)[C@@H](OC(=O)c5cc(-c6cccnc6)c[nH]5)[C@@H]3O[C@]42/C(C)=C/[C@@H](C)[C@@H]([C@@H](C)O)OC1=O [Example 164]: 4.99

Parameter requested: pIC50. Apply to each item below.
1. CO[C@H]1C[C@H]2C=C[C@H]3[C@H]4O[C@]2(/C(C)=C/[C@H](C)[C@@H](c2ccccc2)OC1=O)[C@@H]3[C@H](O)[C@@H](C)[C@H]4OC(=O)c1ccc[nH]1 [Example 53]
2. CO[C@H]1C[C@H]2C=C[C@@H]3[C@H]4[C@H](O)[C@@H](C)C(=O)[C@@H]3O[C@]42/C(C)=C/[C@@H](C)[C@@H]([C@@H](C)O)OC1=O [Example 202]

1. 6.74
2. 4.11
